# assay_summary: amyloid nucleation score (Sup35N fusion, yeast selection) (log enrichment); library NNK1; higher = more nucleation; inactive = no reads after selection;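 note: zero at mode of non-aggregating sequences after 7 days selection at 30°C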
# amyloid nucleation score listing for each entry below

substance: RIYRFLKLLIRGGVISVARY
amyloid nucleation score: -0.758

substance: NNGGASVGFWRMPCHWTRMH
amyloid nucleation score: -0.371

substance: TSNHML
amyloid nucleation score: 0.226

substance: SKASMEGYW
amyloid nucleation score: 0.739

substance: RDASRVVCMRPRWGPFQVVV
amyloid nucleation score: 0.222

substance: SMLMFIQIV
amyloid nucleation score: 1.96

substance: RICGGTSFDSRNGLKLGRKG
amyloid nucleation score: 0.034

substance: TKLTSVYMK
amyloid nucleation score: -0.355

substance: NESGSARFSPVDSYGFGSGC
amyloid nucleation score: -0.894

substance: TKMHCVGGSSRTNKSLWTIY
amyloid nucleation score: 1.08

###

# assay_summary: amyloid nucleation score (Sup35N fusion, yeast selection) (log enrichment); library NNK3; higher = more nucleation; inactive = no reads after selection

substance: VSIFCCQPSSVIAVDISDHS
amyloid nucleation score: 2.93
--
substance: GNIDCSTVFVSRNNCD
amyloid nucleation score: inactive
--
substance: WEYNASLLVLTHLGWAFHLC
amyloid nucleation score: inactive
--
substance: TLMISPENIVRR
amyloid nucleation score: inactive
--
substance: DKTYYYRDDSLV
amyloid nucleation score: inactive
--
substance: FVTYDPYTFIDYFIVSHPRL
amyloid nucleation score: 0.61
--
substance: YCLKLLGGFC
amyloid nucleation score: 0.657
--
substance: ANTGMWLRMFPCWAPWDRVE
amyloid nucleation score: inactive
--
substance: CSIPFVWEIHHM
amyloid nucleation score: inactive
--
substance: SSWMYGFCVSKSSWPRL
amyloid nucleation score: -0.272
--
substance: SCLCVSW
amyloid nucleation score: inactive
--
substance: RGRMLDHGSS
amyloid nucleation score: inactive
--
substance: VRSFFYRSLYQCISRNPCCA
amyloid nucleation score: inactive
--
substance: SIKYSGFMWTWVNLLDPTVP
amyloid nucleation score: inactive
--
substance: QTGCIPNER
amyloid nucleation score: 1.05
--
substance: GTVGHYRLST
amyloid nucleation score: inactive
--
substance: DRGFGYGSITKGINA
amyloid nucleation score: inactive
--
substance: IVNRIVVSSRRFSLVHWGWA
amyloid nucleation score: 1.73

###

# amyloid nucleation score listing for each entry below
# assay_summary: amyloid nucleation score (Sup35N fusion, yeast selection) (log enrichment); library NNK2; higher = more nucleation; inactive = no reads after selection
measurement_label: amyloid nucleation score

substance: YCCPYYRKVLF
measurement: -0.559

substance: RDRRASYLVVASPTAGLHMV
measurement: 3.34

substance: KLAYCYSSYSHHD
measurement: 0.316

substance: IFAAGYMYIFILVYLLTARG
measurement: -0.01

substance: EHLGIIAIRCAQIHKFLPEL
measurement: 0.539

substance: LCILTRTYSAQA
measurement: -0.238

substance: YVLSYSCLDLYSIHL
measurement: 5.64

substance: VVLFWLNCRRVYFLGSKYRA
measurement: 0.331

substance: NGFVSSSRSFICFRWKWRYY
measurement: 0.255

substance: VICFAMSMILR
measurement: 3.38

substance: ACRELVWLG
measurement: 0.354

substance: SVSVEYWCSLWDRRDKGSSQ
measurement: 0.619

substance: QMAINAGRRRRHAEYGLRNS
measurement: 0.684

substance: ELFTLGLEGALEVNELKLKY
measurement: 0.782

substance: SAFDKASERLCSESVYKGKN
measurement: 1.7

substance: LQDYCACNGVSCCIVYCKSF
measurement: 8.69

substance: GICRKNDRTSDQRYFVKSL
measurement: -0.575

substance: AVAASLMFYVCFITADIADM
measurement: 0.859

substance: NDLSNGSVESMRQYYYLREN
measurement: -0.724

substance: MGLWLDYDTHCYQNVVFKRT
measurement: 2.41

substance: TLLKHTSSTSIVYRRHALEI
measurement: 1.35

substance: VNWEHVRIVELFYKGMSQMA
measurement: -0.549

substance: DMLVDYSIKDDRVYKVRLPM
measurement: -1.61

substance: HWSADDNFSSLQRLFVYMGR
measurement: 4.58

substance: CMNGPFTLTRPTARGRIRC
measurement: 0.32

substance: WVQHYCSEFLL
measurement: -0.313

substance: FCGISSR
measurement: -0.411

substance: IVGDVHSLMILRVKSAFKFT
measurement: 2.81

substance: PRILLQSLRI
measurement: 2.47

substance: YVWSAKHSNIDCRVES
measurement: 0.877

substance: VSVKRGAPKVGSTGPVYTCG
measurement: -0.306

substance: GDVLPNTSTGIFFSQPIMCA
measurement: 0.501

substance: YIAYGDFSSFFTLNIS
measurement: 7.48

substance: YICRNLISESLCLYYTGARG
measurement: 5.03
